tested on: P. berghei ookinete development; conditions: primary screen at 1 μM, replicate A

molecule	% inhibition, Replicate A (%)
C=Cc1cc(OC)c2c(c1)c(=O)oc1c2cc(OC)c2c(O)ccc([C@H]3O[C@H]([C@H](C)O)[C@H](O)[C@H]3O)c21	89.48
COc1cc(OC)cc(-c2nn(-c3ccc([N+](=O)[O-])cc3C#N)c(=S)n2CC2CCCO2)c1 (centres unmarked)	44.85
COc1ccc2ncc(F)c(CCN3CC[C@H](NCc4cc(C#N)c5c(c4)OCCO5)[C@H](O)C3)c2c1	67.99
CC(=O)Nc1cccc(Nc2c3ccccc3nc3ccccc23)c1	54.87
CCC[C@@H]([C@@H](CC1CCCCC1)C(=O)N[C@H](C(=O)Nc1nccs1)C(C)(C)SC)N(O)C=O	7.94
COc1cc(OC)cc(-c2nn(-c3ccc([N+](=O)[O-])cc3C#N)c(=S)n2Cc2ccco2)c1	26.66
COc1cccc(CC(=O)N2CCC(n3c(C)nc4ccc(C)cc43)CC2)c1	79.91
O=c1cc(NCCCN(Cc2ccccc2)Cc2ccccc2)[nH]c2ccccc12	31.96
